- targetUnderTest: GCase (Cerezyme) (Homo sapiens, UniProt P04062, R534H)
- Sequence (P04062 40-536 R534H): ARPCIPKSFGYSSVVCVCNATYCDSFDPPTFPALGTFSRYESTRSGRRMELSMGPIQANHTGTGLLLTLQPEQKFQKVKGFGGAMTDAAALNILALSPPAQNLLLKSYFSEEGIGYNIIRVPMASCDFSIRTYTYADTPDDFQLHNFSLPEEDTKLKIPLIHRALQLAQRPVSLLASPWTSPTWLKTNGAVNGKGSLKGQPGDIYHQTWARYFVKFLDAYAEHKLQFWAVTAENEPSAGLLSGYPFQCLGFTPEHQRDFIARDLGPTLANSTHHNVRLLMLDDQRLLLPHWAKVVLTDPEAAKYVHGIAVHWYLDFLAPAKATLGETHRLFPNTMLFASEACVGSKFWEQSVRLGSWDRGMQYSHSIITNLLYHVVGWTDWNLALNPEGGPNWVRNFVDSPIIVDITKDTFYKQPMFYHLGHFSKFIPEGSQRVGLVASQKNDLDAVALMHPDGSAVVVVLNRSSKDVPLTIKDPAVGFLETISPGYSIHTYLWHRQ
- testDescription: Thermal stability assay for GCase
- Assay type: binding
- runParameters: pH 5.2, read-out: ΔTm
Catalogue of ΔTm at 500 µM values

# compound, u, ΔTm at 500 µM
rows = [
    ("OC[C@H]1CNC[C@@H](O)[C@@H]1O [IFG, isofagomine, reference compound]", "°C", 12.2),
    ("Cl.O[C@H]1[C@H](O)[C@@H](O)CNC[C@@H]1O [Compound 1]", "°C", 0.6),
    ("Cl.OCCN1C[C@H](O)[C@@H](O)[C@H](O)[C@@H](O)C1 [Compound 2]", "°C", 0.3),
    ("Cl.OCCOCCN1C[C@H](O)[C@@H](O)[C@H](O)[C@@H](O)C1 [Compound 3]", "°C", 0.3),
]
